# Test system: Zymoseptoria tritici (SEPTTR-184)
# ASSAY_DETAILS: Cyp51 dsRNA tile (fragment) foliar application bioassay (Example 6)
# Assay type: in vivo
# EXPERIMENTAL_PARAMETERS: 1 day protectant; calculated from disease control
READOUT_TYPE: ED80 (ppm) SEPTTR-184 1DP

The recorded ED80 (ppm) SEPTTR-184 1DP for entry MgCyp51-T4: dsRNA tile of Zymoseptoria tritici Cyp51, 178 bp, location 647-824 (nucleic acid, listed as Zymoseptoria tritici) AGGGCTTCGACTCGTCTTTCGCGGACCTCTACCACTACCTCGATATGGGATTCACACCGATCAACTTTATGCTTCCGTGGGCGCCCCTTCCCCAGAACCGACGCCGCGATTATGCGCAGAAGAAGATGTCCGAGACATACATGTCGATCATTCAGAAGAGACGAGAGTCCAAAACGGG equals 200 ppm

Entry MgCyp51-T11: dsRNA tile of Zymoseptoria tritici Cyp51, 172 bp, location 775-946 (nucleic acid, listed as Zymoseptoria tritici) TCCGAGACATACATGTCGATCATTCAGAAGAGACGAGAGTCCAAAACGGGCGAACATGAGGAAGACATGATCCACAACTTGATGCAGTGCAAATACAAGGACGGCAATGCCATTCCCGACAAGGAGATTGCTCATATGATGATTGCGCTGCTCATGGCCGGCCAGCACTCTT ; ED80 (ppm) SEPTTR-184 1DP = >200 ppm

Kindly note the recorded ED80 (ppm) SEPTTR-184 1DP for MgCyp51-T13: dsRNA tile of Zymoseptoria tritici Cyp51, 119 bp, location 1517-1635 (nucleic acid, listed as Zymoseptoria tritici, long dsRNA tile, purified, chemistry not given here) ACAATGTGGATGGCAGCGACAACGTGGTGGGTACGGATTACAGCAGTTTGTTCAGCCGGCCGCTGTCGCCGGCAGTAGTAAAGTGGGAGAGGAGGGAGGAGAAGGAGGAGAAGAACTGA , which is >200 ppm
